# Test system: bacterial strain SK-1
# assay overview: Growth substrate tests in liquid medium
# Type: cell-based
# experimental setup: initial concentration 100 parts per million, except chlorobenzoate 2-3 millimolar
# Experimental: The ability of the four isolated strains to grow on selected polychlorobiphenyls as a sole carbon source was assessed. (All tests were conducted in a liquid medium. The initial concentration of the organic substrate was 100 parts per million, except chlorobenzoate, which was 2-3 millimolar).
assay endpoint: Growth of SK-1 on the substrate as sole carbon source

Worked cases, Growth of SK-1 on the substrate as sole carbon source given:
Fill in Growth of SK-1 on the substrate as sole carbon source for record Clc1ccc(-c2ccccc2Cl)cc1Cl
No

Fill in Growth of SK-1 on the substrate as sole carbon source for record Clc1ccccc1-c1cccc(Cl)c1Cl
No

Fill in Growth of SK-1 on the substrate as sole carbon source for record Clc1cccc(-c2ccccc2)c1
Yes

Fill in Growth of SK-1 on the substrate as sole carbon source for record Clc1ccc(-c2ccccc2)cc1
Yes

Fill in Growth of SK-1 on the substrate as sole carbon source for record c1ccc(-c2ccccc2)cc1
Yes

Fill in Growth of SK-1 on the substrate as sole carbon source for record c1ccc2ccccc2c1
No

Fill in Growth of SK-1 on the substrate as sole carbon source for record Clc1cc(Cl)cc(-c2ccccc2)c1
No

Fill in Growth of SK-1 on the substrate as sole carbon source for record Clc1ccc(-c2ccccc2Cl)cc1
Yes

Fill in Growth of SK-1 on the substrate as sole carbon source for record Clc1cccc(-c2ccccc2Cl)c1
No

Fill in Growth of SK-1 on the substrate as sole carbon source for record O=C(O)c1ccccc1Cl [2-chlorobenzoate]
No

More entries:
Fill in Growth of SK-1 on the substrate as sole carbon source for record O=C(O)c1ccccc1 [Benzoate]
Yes

Fill in Growth of SK-1 on the substrate as sole carbon source for record O=C(O)CCl [Chloroacetate]
Yes

Fill in Growth of SK-1 on the substrate as sole carbon source for record Clc1ccccc1-c1ccccc1Cl
No

Fill in Growth of SK-1 on the substrate as sole carbon source for record Clc1ccc(-c2ccccc2)cc1Cl
No

Fill in Growth of SK-1 on the substrate as sole carbon source for record O=C(O)c1cccc(Cl)c1Cl [2,3-dichlorobenzoate]
No
